Value source: the supplement of paper PMC10567573

# ASSAY METHOD TEXT: protein stability index of a GFP-peptide fusion (GPS, HEK-293T) (PSI 1-6); higher = more stable;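 also: 24-mer peptide tiles fused after GFP, lentivirally expressed, FACS-sorted into six equal bins by GFP/DsRed ratio, decoded by Illumina sequencing, PSI is the read-weighted mean bin number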
# STUDY CONDITIONS: treatment: DMSO; c terminus: a fixed tail appended
Parameter threshold = 3. Response is 1 when protein stability index meets or exceeds it, else -1.

{"ORDERED RESIDUES": "TGWARKGLGNTWPGASGSAQSLDR [ATP23]", "CLASS": 1}
{"ORDERED RESIDUES": "EPVTLETPAFMFRLDASTSHQNLR [FSD1]", "CLASS": 1}
{"ORDERED RESIDUES": "SELERESKVVVPPLPGKAFLRQLP [SNX3]", "CLASS": 1}
{"ORDERED RESIDUES": "DPDPDPEPAGGSRPGPAVPGLRAL [CMTM3]", "CLASS": 1}
{"ORDERED RESIDUES": "LREMCALSFQEELLYWGIAEDHLD [KCNG1]", "CLASS": -1}
{"ORDERED RESIDUES": "LEQKTQESQKKKQQDDSDEYDDDD [ZNF207]", "CLASS": 1}
{"ORDERED RESIDUES": "QSSGLIRHQRIHTGERPYECNECG [ZSCAN9]", "CLASS": 1}
{"ORDERED RESIDUES": "LKDLLLQVGRGLRYIHSMSLVHMD [WEE1]", "CLASS": -1}
{"ORDERED RESIDUES": "LRSQLQTLKQQHQQAVEQIAKAEE [CCDC89]", "CLASS": 1}
{"ORDERED RESIDUES": "KVLGHVNNILISAVLPTAFRVAKK [GDAP1]", "CLASS": -1}
{"ORDERED RESIDUES": "HKKTTHKLNCDPSRIYKPQTRLKR [DFFB]", "CLASS": 1}
{"ORDERED RESIDUES": "SQIQGHKEMSKVWNDLRPKLSCLF [SNX8]", "CLASS": -1}
{"ORDERED RESIDUES": "LPPSPRFLVMKGQEGAASKVLGRL [SLC2A12]", "CLASS": 1}
{"ORDERED RESIDUES": "KDLDGMDADILGLKKSNSAPSKKA [FBF1]", "CLASS": 1}
{"ORDERED RESIDUES": "MVKIFRLLPTKSLVALKCTCCYFK [FBXO34]", "CLASS": 1}
{"ORDERED RESIDUES": "GIRLPNGKLKCDICGIICIGPNVL [IKZF1]", "CLASS": -1}
{"ORDERED RESIDUES": "RTEIISRSWFPSAPGSASSSKVSG [YJU2B]", "CLASS": 1}
{"ORDERED RESIDUES": "YRFHEHWRFVLQRLVFLAAFVVYL [TSN]", "CLASS": -1}
{"ORDERED RESIDUES": "QTGGDVNVEMDAAPGVDLSRILNE [KRT16]", "CLASS": 1}
{"ORDERED RESIDUES": "TSFLQHPWDESGSGCLPPEPLFEA [FOXJ1]", "CLASS": 1}
{"ORDERED RESIDUES": "ASTVTEIVKQQDPLVYKAIQQGIN [ACSBG2]", "CLASS": 1}
{"ORDERED RESIDUES": "QNQHHSASLQASIFSGAASLGYGT [APBB1IP]", "CLASS": 1}
{"ORDERED RESIDUES": "FPRKSELTEHQRIHTGIKPHQCSE [ZNF649]", "CLASS": 1}
{"ORDERED RESIDUES": "ISCVICNDIMAYMFGFFFGRTPLI [CDS2]", "CLASS": 1}
{"ORDERED RESIDUES": "IHAYNLGTNAWEEIATKPHEKIGF [KLHDC10]", "CLASS": -1}
{"ORDERED RESIDUES": "QPVVDTFDIRILMAKSVKYTVNFL [CARM1]", "CLASS": -1}
